Organism: Rattus norvegicus
method: Open TG-GATES - Regimen: Daily Repeat
Type: toxicity, organism-based, Sprague-Dawley
Parameters: regimen Daily Repeat, gender Male, age 6 weeks
test.context: in vivo, po, 0 mg/kg, […], tissue Kidney, route gavage, dose level Control, time 28 day
I'd be grateful if you could share measured KIDNEY_TOTAL for these entries.
Report the value in g with no unit label.

Output KIDNEY_TOTAL of CCOC(=O)[C@H](CCc1ccccc1)N[C@@H](C)C(=O)N1CCC[C@H]1C(=O)O
2.8

Give the measured KIDNEY_TOTAL for Clc1c(Cl)c(Cl)c(Cl)c(Cl)c1Cl [PERCHLOROBENZENE]
2.9

Return KIDNEY_TOTAL (reported value) for this compound: O=C(O)Cc1ccccc1Nc1c(Cl)cccc1Cl [DICLOFENAC]
2.8

Give the reported KIDNEY_TOTAL for this compound. C#C[C@]1(O)CC[C@H]2[C@@H]3CCC4=Cc5oncc5C[C@]4(C)[C@H]3CC[C@@]21C [DANAZOL]
2.8

Consider the compound CC(=O)Nc1nnc(S(N)(=O)=O)s1 [ACETAZOLAMIDE] and give its recorded KIDNEY_TOTAL.
2.6

Report KIDNEY_TOTAL, nothing else, for this compound: Cc1cccc(Nc2ccccc2C(=O)O)c1C [MEFENAMIC ACID]
2.9

Give a short answer stating reported KIDNEY_TOTAL for CN(C)[C@@H]1C(O)=C(C(N)=O)C(=O)[C@@]2(O)C(O)=C3C(=O)c4c(O)cccc4[C@@](C)(O)[C@H]3C[C@@H]12 [TETRACYCLINE] .
2.7

Read off the recorded KIDNEY_TOTAL for CN1C(C(=O)Nc2ccccn2)=C(O)c2sc(Cl)cc2S1(=O)=O [LORNOXICAM]
2.7

State its KIDNEY_TOTAL: C1CCC(C(CC2CCCCN2)C2CCCCC2)CC1 (stereo not given) [PERHEXILINE]
2.5

State its KIDNEY_TOTAL for this compound: CC(CN1c2ccccc2Sc2ccccc21)N(C)C (stereo not given) [PROMETHAZINE]
2.8
